assay: Dog pharmacokinetic studies: plasma PK of ribociclib after single i.v. or oral dose; assay type: in vivo; settings: male, Beagle, 0.5 mg/kg, dog m (3), po, 0.5 mg base/kg, AUC interval 24 h

>  <molecule>
CN(C)C(=O)c1cc2cnc(Nc3ccc(N4CCNCC4)cn3)nc2n1C1CCCC1 [ribociclib, Ribociclib]

>  <AUC(0-t)>
155 ng·h/mL

$$$$

----------
assay: Rat pharmacokinetic studies: plasma PK of ribociclib after single i.v. or oral dose; format: in vivo; conditions: female, Hanover Wistar, iv, rat f (3), i.v., 4.2 mg base/kg, read-out: t½ (converted)

>  <compound>
CN(C)C(=O)c1cc2cnc(Nc3ccc(N4CCNCC4)cn3)nc2n1C1CCCC1 [ribociclib, Ribociclib]

>  <scaleUnit>
h

>  <half-life>
1.9

$$$$

----------
assay: Placental transfer (fetal vs maternal plasma), rabbit embryofetal development study; assay type: in vivo; settings: female, fetal plasma (relative to maternal plasma), rabbits, 3 hours post dose, Day 20 postcoitum, read-out: Fetal plasma concentration as % of maternal plasma concentration

>  <cpdSmiles>
CN(C)C(=O)c1cc2cnc(Nc3ccc(N4CCNCC4)cn3)nc2n1C1CCCC1

>  <Kp at 3 h>
0.06

$$$$

----------
Listing: IC50 of selected compounds
tested on: CYP enzymes that metabolise ribociclib in HLM (total metabolism; CYP-selective chemical inhibitors); assay: Inhibition of [3H] ribociclib total metabolism in HLM by CYP- and FMO-selective inhibitors; format: in vitro ADME; details: both, human, human liver microsomes, pH 7.4, probe [3H] ribociclib

>  <compound>
Nc1ccc(S(=O)(=O)Nc2ccnn2-c2ccccc2)cc1 [Sulfaphenazole]

>  <IC50>
> 5 µM

$$$$
>  <compound>
Cc1nc2c([nH]1)c(=O)n(C)c(=O)n2Cc1ccco1 [Furafylline]

>  <IC50>
> 10 µM

$$$$
>  <compound>
CC(C)(O)c1ccccc1CC[C@@H](SCC1(CC(=O)O)CC1)c1cccc(/C=C/c2ccc3ccc(Cl)cc3n2)c1 [Montelukast]

>  <IC50>
> 2 µM

$$$$
>  <compound>
CC[C@]1(C)C[C@@H](OC(=O)CSc2nnc(N)[nH]2)[C@]2(C)[C@H](C)CC[C@]3(CCC(=O)[C@H]32)[C@@H](C)[C@@H]1O [Azamulin]

>  <IC50>
1.05 µM

$$$$

----------
Assay: Dog pharmacokinetic studies: plasma PK of ribociclib after single i.v. or oral dose
Format: in vivo
Conditions: male, iv, dog m (3), 0.2 mg base/kg
Method: ADME studies (including QWBA in pigmented and non‐pigmented rats) using radiolabeled ribociclib were conducted in rat and dog. Relevant institutional and national guides for the care and use of laboratory animals were followed. […]

>  <compound>
CN(C)C(=O)c1cc2cnc(Nc3ccc(N4CCNCC4)cn3)nc2n1C1CCCC1 [ribociclib, Ribociclib]

>  <clearance / L/h/kg>
1.9

$$$$

----------
System: FMO3
Experiment: Kinetic analysis of ribociclib metabolite formation in HLM and enzyme contribution
Type: in vitro ADME, human
Conditions: both sexes, human, pooled human liver microsomes, pH 7.4; HLM; read-out: CLint attributed to FMO3
Method: In vitro incubations were carried out in 100‐mM potassium phosphate buffer (pH 7.4) and 5‐mM MgCl2 with a total volume of 200 µL. […] The enzymatic reaction was stopped and the protein was precipitated by addition of an equal volume of methanol. […] Aliquots were analyzed by LSC and the supernatant was diluted with water to obtain a final solution containing less than 20% of the organic solvent. […] Samples were analyzed by HPLC combined with radiodetection. […]
readout: microsomal CLint (µL/min/mg)

>  <molecule>
CN(C)C(=O)c1cc2cnc(Nc3ccc(N4CCNCC4)cn3)nc2n1C1CCCC1 [ribociclib, Ribociclib]

>  <testResult>
8.19

$$$$

----------
experiment: Rat pharmacokinetic studies: plasma PK of ribociclib after single i.v. or oral dose; assay type: in vivo; conditions: male, Hanover Wistar, rat, iv, 4.1 mg base/kg

>  <compound>
CN(C)C(=O)c1cc2cnc(Nc3ccc(N4CCNCC4)cn3)nc2n1C1CCCC1 [ribociclib, Ribociclib]

>  <scaleUnit>
µg·h/mL

>  <AUC(0-t)>
1.44

$$$$

----------
assay: Dog pharmacokinetic studies: plasma PK of ribociclib after single i.v. or oral dose; assay type: in vivo; conditions: male, Beagle, dog m (4), po, 18.9 mg base/kg

>  <cpdSmiles>
CN(C)C(=O)c1cc2cnc(Nc3ccc(N4CCNCC4)cn3)nc2n1C1CCCC1

>  <scaleUnit>
%

>  <bioavailability>
87

$$$$

----------
test: Dog pharmacokinetic studies: plasma PK of ribociclib after single i.v. or oral dose; format: in vivo; conditions: male, Beagle, dog m (4), po, 18.9 mg base/kg, read-out: t½ (converted)
readout: half-life (h)

>  <cpdSmiles>
CN(C)C(=O)c1cc2cnc(Nc3ccc(N4CCNCC4)cn3)nc2n1C1CCCC1

>  <readout>
half-life

>  <testResult>
12.6

$$$$

----------
experiment: Human ADME study: PK of ribociclib and LEQ803 in plasma and urine (validated bioanalytical assay); format: in vivo; settings: human, plasma, po, 600 mg, human plasma, bioanalytical assay, single oral 600 mg, N=6; read-out: Cmax, median

>  <compound>
CNC(=O)c1cc2cnc(Nc3ccc(N4CCNCC4)cn3)nc2n1C1CCCC1 [M4 (LEQ803)]

>  <Cmax [ng/mL]>
59

$$$$
>  <compound>
CN(C)C(=O)c1cc2cnc(Nc3ccc(N4CCNCC4)cn3)nc2n1C1CCCC1 [ribociclib, Ribociclib]

>  <Cmax [ng/mL]>
518

$$$$

----------
test: Rat pharmacokinetic studies: plasma PK of ribociclib after single i.v. or oral dose; assay type: in vivo; details: female, rat f (3), po, 11.1 mg base/kg
readout: Tmax (h)

>  <molecule>
CN(C)C(=O)c1cc2cnc(Nc3ccc(N4CCNCC4)cn3)nc2n1C1CCCC1 [ribociclib, Ribociclib]

>  <testResult>
2

$$$$

----------
assay: Dog pharmacokinetic studies: plasma PK of ribociclib after single i.v. or oral dose; type: in vivo; settings: male, Beagle, iv, 0.2 mg/kg, dog m (3), 0.2 mg base/kg, AUC interval 24 h
readout: AUC(0-t) (ng·h/mL)

>  <cpdSmiles>
CN(C)C(=O)c1cc2cnc(Nc3ccc(N4CCNCC4)cn3)nc2n1C1CCCC1

>  <readout>
AUC(0-t)

>  <scaleUnit>
ng·h/mL

>  <testResult>
105

$$$$

----------
assay: Rat pharmacokinetic studies: plasma PK of ribociclib after single i.v. or oral dose; type: in vivo; conditions: male, Hanover Wistar, rat m (3), po, 9.8 mg base/kg
readout: Cmax (ng/mL)

>  <cpdSmiles>
CN(C)C(=O)c1cc2cnc(Nc3ccc(N4CCNCC4)cn3)nc2n1C1CCCC1

>  <readout>
Cmax

>  <testResult>
130

$$$$

----------
Recorded AUC0-48h, % of total [14C]-AUC0-48 by entry
test: Human ADME study: quantitative metabolite profiling in plasma; assay type: in vivo; details: human plasma pools n=6, from metabolite patterns

>  <cpdSmiles>
CN(C)C(=O)c1cc2cnc(Nc3ccc(N4CCN(S(=O)(=O)O)CC4)cn3)nc2n1C1CCCC1

>  <AUC0-48h, % of total [14C]-AUC0-48>
0.0297%

$$$$
>  <cpdSmiles>
CNC(=O)c1cc2cnc(Nc3ccc(N4CCNCC4)cn3)nc2n1C1CCCC1

>  <AUC0-48h, % of total [14C]-AUC0-48>
8.60%

$$$$
>  <cpdSmiles>
CN(C)C(=O)c1cc2cnc(Nc3ccc(N4CCN(O)CC4)cn3)nc2n1C1CCCC1

>  <AUC0-48h, % of total [14C]-AUC0-48>
9.39%

$$$$

----------
Assay: Rat pharmacokinetic studies: plasma PK of ribociclib after single i.v. or oral dose
Assay type: in vivo
Conditions: female, iv, rat f (3), 4.2 mg base/kg
Description: ADME studies (including QWBA in pigmented and non‐pigmented rats) using radiolabeled ribociclib were conducted in rat and dog. Relevant institutional and national guides for the care and use of laboratory animals were followed. […]

>  <cpdSmiles>
CN(C)C(=O)c1cc2cnc(Nc3ccc(N4CCNCC4)cn3)nc2n1C1CCCC1

>  <clearance>
130 mL/min/kg

$$$$

----------
assay: Rat pharmacokinetic studies: plasma PK of ribociclib after single i.v. or oral dose; format: in vivo; conditions: male, Sprague Dawley, 5 mg/kg, rat m (3), po, 5.0 mg base/kg
readout: bioavailability (%)

>  <cpdSmiles>
CN(C)C(=O)c1cc2cnc(Nc3ccc(N4CCNCC4)cn3)nc2n1C1CCCC1

>  <readout>
bioavailability

>  <testResult>
55

$$$$

----------
test: Rat pharmacokinetic studies: plasma PK of ribociclib after single i.v. or oral dose; assay type: in vivo; conditions: female, rat f (4), po, 51.2 mg base/kg

>  <cpdSmiles>
CN(C)C(=O)c1cc2cnc(Nc3ccc(N4CCNCC4)cn3)nc2n1C1CCCC1

>  <Cmax>
1090 ng/mL

$$$$
